# test: HepG2 liver cancer cell viability effects, profiling panel, resazurin fluorescence, 24 h, PK04 Diversity Set (AID 1172); further: test concentration not given here
# setup_conditions: higher = more signal
experimental_endpoint: z-score
Give bare numbers.

Please review the entries below; each comes with its answer.
>>> measured_number("CC(=O)OC[C@H]1O[C@@H](ON=C2[C@H]3CCn4c(=O)n(-c5ccccc5)c(=O)n4[C@H]3[C@H](O)[C@@H]3O[C@H]23)[C@H](OC(C)=O)[C@@H](OC(C)=O)[C@@H]1OC(C)=O")
-0.779
>>> measured_number("O=C1[C@H]2[C@H]3[C@H](O)[C@H](O)CC(=NO[C@@H]4O[C@H](CO)[C@@H](O)[C@H](O)[C@H]4O)[C@@H]3CC[C@H]2C(=O)N1c1cccc(Oc2ccccc2)c1")
0.647
>>> measured_number("O=C1[C@H]2[C@H]3[C@H](O)[C@H](O)CC(=NOC[C@@H](O)COCc4ccco4)[C@@H]3CC[C@H]2C(=O)N1c1cccc(Oc2ccccc2)c1")
0.928
>>> measured_number("COc1ccc(-c2cnnc(CCCn3ccnc3-c3ccccc3)n2)cc1")
-1.18
>>> measured_number("CCOC(=O)[C@H](CC(C)C)NC(=O)CCC1CC(OC(=O)NCCc2ccc(F)cc2)CC2(CCCC(COC(=O)NCc3cccc4ccccc34)O2)O1 (some centres undefined)")
0.682

Give z-score for each of the items listed below.
1. CO[C@H]1COC(=O)CC=C[C@H](C)[C@H](OC)COC(=O)[C@@H](C)NC(=O)CC=C[C@@H]1C
2. CC(=O)OC[C@H]1O[C@H](C#CCC2CCCCC2)C=C[C@@H]1OC(C)=O
3. CCCNC(=O)OC[C@H]1O[C@H](CCON=C2C[C@@H](O)[C@@H](O)[C@@H]3[C@@H]4C(=O)N(CC)C(=O)[C@@H]4CC[C@@H]23)C=C[C@@H]1Oc1ccc(OC)cc1
4. CCN1C(=O)[C@H]2[C@H]3[C@H](O)[C@H](O)CC(=NNC(=O)OCc4ccccc4)[C@@H]3CC[C@H]2C1=O
5. CC(C)[C@@H](OCc1ccccc1)[C@H](C)C=NO[C@@H](C)c1cn([C@H](CO)Cc2ccccc2)nn1
6. O=C1C2=CC[C@H]3C(=O)N(Cc4ccccc4)C(=O)[C@H]3[C@H]2[C@H](O)[C@@H]2O[C@H]12
7. Cc1ccc(S(=O)(=O)N[C@@H]2COC(=O)CC=C[C@@H](C)[C@H](NS(=O)(=O)c3ccc(C)cc3)COC(=O)[C@H](C)NC(=O)CC=C[C@H]2C)cc1

Data returned:
1: 0.664; 2: 0.0616; 3: -0.57; 4: -0.501; 5: -1.07; 6: 0.35; 7: -0.286

Give z-score for each of the items listed below.
1. COC(=O)CC=C[C@@H](C)[C@@H](C=NOC[C@@H](O)COCc1ccco1)NS(=O)(=O)c1ccc(C)cc1
2. COc1ccc(O[C@H]2C=C[C@@H](c3ccccc3)O[C@@H]2CO)cc1

Data returned:
[-0.8, 0.121]

====

# test: fission yeast growth modulation, primary screen, strain 972, OD600, 24 h, no modulator (AID 1090);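 further: basal condition with compound alone and no growth modifier present; test concentration not given here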
# setup_conditions: S. pombe 972 growth, called active from +8 up or from −8 down
Activity calls are given as the source filed them.
In this exercise, the only acceptable responses are 1 = active, -1 = inactive

>>> cat("COc1ccc(OC[C@@H]2CC3[C@@H](c4ccc(Br)cc4)[C@H](C)CC[C@H]3C(=O)O2)cc1 (stereo not given in full)")
-1
>>> cat("CCN(CC)CC(O)CN1CCCCc2nc(C)c(C)cc21 (stereo not given)")
-1
>>> cat("O=C1[C@H]2[C@H]3[C@H](O)[C@H](O)CC(=NO[C@@H]4O[C@H](CO)[C@@H](O)[C@H](O)[C@H]4O)[C@@H]3CC[C@H]2C(=O)N1c1cccc(Oc2ccccc2)c1")
-1
>>> cat("COc1ccc(COC(=O)NN=C2C[C@@H](O)[C@@H](O)[C@@H]3[C@@H]4C(=O)N(C[C@@H]5CCCO5)C(=O)[C@@H]4CC[C@@H]23)cc1")
-1

Data request: Tell me the recorded outcome of this test for `CCCC[C@H]1CN2[C@@H](CC[C@@H](C)[C@@H]2c2ccc(Br)cc2)C(=O)O1` .
Data returned: 1

Data request: And `CC(CCN1CCCc2nc(C)c(C)cc21)=NO[C@@H](C)c1cn([C@H](CO)Cc2ccccc2)nn1` ?
Data returned: -1

Data request: And `COc1ccc2c(c1)O[C@@H](c1cccc(C(F)(F)F)c1)[C@H](O)C2=O` ?
Data returned: -1

Data request: And CCN1C(=O)[C@H]2[C@H]3[C@H](O)[C@H](O)CC(=NOC(C)CN4CCCc5nc(C)c(C)cc54)[C@@H]3CC[C@H]2C1=O (stereo not given in full) ?
Data returned: -1

====

# study_system: Fibroblast growth factor 2 (Homo sapiens) (UniProt P09038)
# Sequence (P09038 whole entry, looked up): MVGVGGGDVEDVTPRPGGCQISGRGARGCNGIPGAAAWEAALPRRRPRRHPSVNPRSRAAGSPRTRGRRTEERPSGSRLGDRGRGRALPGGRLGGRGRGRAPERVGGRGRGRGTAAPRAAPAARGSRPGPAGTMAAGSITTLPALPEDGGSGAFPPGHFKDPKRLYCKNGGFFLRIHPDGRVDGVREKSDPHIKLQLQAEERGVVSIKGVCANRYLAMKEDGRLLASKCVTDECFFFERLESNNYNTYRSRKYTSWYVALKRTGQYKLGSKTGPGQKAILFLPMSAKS
# test: FGF2 binders on small-molecule microarrays, primary screen, biochemical, small-molecule microarray, 635/667 nm fluorescence (AID 1133)
# setup_conditions: small-molecule microarray binding, FGF2, fluorescence 635/667; higher = more signal
Label fulfilled when composite z-score >= 0.4; otherwise not fulfilled.

These solved cases illustrate the format of a correct answer.
>>> cat("CC(C)=NOC(C)CN1CCCCc2nc(C)c(C)cc21 (stereo not drawn)")
"not fulfilled"
>>> cat("C[C@]12CCC3c4ccc(OCC5CO5)cc4CCC3C1CC[C@@H]2O (stereo partly drawn)")
"not fulfilled"
>>> cat("CCOC(=O)[C@H](Cc1ccccc1)NC(=O)CCC1CC(OC(=O)NCc2cccc3ccccc23)CC2(CCCC(COC(=O)NCC3CCCCC3)O2)O1 (stereo partly drawn)")
"fulfilled"
>>> cat("CCc1cc2c(nc1CC)CCN(CCC(C)=NO[C@@H]1O[C@H](COC(C)=O)[C@@H](OC(C)=O)[C@H](OC(C)=O)[C@H]1OC(C)=O)C2")
"fulfilled"
>>> cat("COC(=O)CC=C[C@@H](C)[C@@H](C=NOC(C)CN1CCCCc2nc(C)c(C)cc21)OC (stereo partly drawn)")
"not fulfilled"
>>> cat("CCN1C(=O)[C@H]2[C@H]3[C@H](O)[C@H](O)CC(=NOCC=C(C)CCC=C(C)C)[C@@H]3CC[C@H]2C1=O")
"fulfilled"
>>> cat("CC(C)=CCCC(C)=CCON=C1[C@H]2CCn3c(=O)n(-c4ccccc4)c(=O)n3[C@H]2[C@H](O)[C@@H]2O[C@H]12")
"fulfilled"

Attention now shifts to the item below.
Data request: Identify whether the reported composite z-score of the following molecule is 0.4 or greater: COC(=O)[C@H](C)NC(=O)CCC1CC(OC(=O)NCCc2ccc(F)cc2)CC2(CCCC(COC(=O)NCC3CCCCC3)O2)O1 (stereo partly drawn)
Data returned: fulfilled

====

# study_system: Dickkopf-related protein 1 (Homo sapiens) (UniProt O94907)
# Sequence (O94907 whole entry, looked up): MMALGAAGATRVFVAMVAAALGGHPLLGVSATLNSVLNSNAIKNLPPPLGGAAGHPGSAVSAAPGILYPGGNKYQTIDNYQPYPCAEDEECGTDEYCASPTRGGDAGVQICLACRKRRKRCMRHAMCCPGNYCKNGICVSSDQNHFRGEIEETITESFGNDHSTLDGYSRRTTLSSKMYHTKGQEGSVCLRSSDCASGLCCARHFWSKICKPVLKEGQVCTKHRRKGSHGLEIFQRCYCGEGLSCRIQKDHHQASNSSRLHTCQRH
# test: DKK1 binders on small-molecule microarrays, primary screen, biochemical, small-molecule microarray, 635 nm fluorescence scan (AID 1106);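 further: score merges emission near 667 nm with signal to noise over three replicate slides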
# setup_conditions: DKK1 binding, higher = more signal
Label yes when composite z-score >= 0.4; otherwise no.

These solved cases illustrate the format of a correct answer.
>>> cat("CCCC[C@H]1CN2[C@@H](CC[C@@H](C)[C@@H]2c2ccc(Br)cc2)C(=O)O1")
"no"
>>> cat("CCCNC(=O)OC[C@H]1O[C@H](CCON=C2C[C@@H](O)[C@@H](O)[C@@H]3[C@@H]4C(=O)N(CC)C(=O)[C@@H]4CC[C@@H]23)C=C[C@@H]1Oc1ccc(OC)cc1")
"yes"
>>> cat("CC(C)=NOC[C@@H](O)[C@H]1O[C@@H]2OC(C)(C)O[C@@H]2[C@H]1O")
"yes"

Data request: Identify whether the reported composite z-score of the following molecule is 0.4 or greater: `C#CCCCON=C1C[C@@H](O)[C@@H](O)[C@@H]2[C@@H]3C(=O)N([C@@H](C)c4ccccc4)C(=O)[C@@H]3CC[C@@H]12`
Data returned: no

Data request: And `COc1ccc(COC(=O)NN=C2C[C@@H](O)[C@@H](O)[C@@H]3[C@@H]4C(=O)N(C(C)(C)C)C(=O)[C@@H]4CC[C@@H]23)cc1` ?
Data returned: yes

Data request: And C=CCOCC1CN2[C@@H](CC[C@@H](C)[C@@H]2c2ccc(Br)cc2)C(=O)O1 (stereo partly specified) ?
Data returned: no

====

# study_system: NADPH oxidase 2 (Homo sapiens)
# test: NOX2-dependent H2O2 signal modulators, primary screen, NOX inhibitor project, cell-based, HEK293-NOX2, PMA-stimulated, Amplex Red fluorescence (AID 1159); further: test concentration not given here
# setup_conditions: 45 min, higher = more signal, called active from +8 up or from −8 down
experimental_endpoint: z-score
Answers are plain numbers.

>>> measured_number("CC(CCN1CCCc2nc(C)c(C)cc21)=NOC[C@@H](C)[C@H](OCc1ccccc1)C(C)C")
-2.43
>>> measured_number("CCOC(=O)[C@H](Cc1ccccc1)NC(=O)CCC1CC(OC(=O)NCc2ccc3c(c2)OCO3)CC2(CCCC(COC(=O)NCCOC)O2)O1 (stereo not given in full)")
0.195
>>> measured_number("CC(C)CON=C1[C@H]2CCn3c(=O)n(C)c(=O)n3[C@H]2[C@H](O)[C@@H]2O[C@H]12")
-0.5

Give z-score for each of the items listed below.
1. COC(=O)CC=C[C@@H](C)[C@@H](C=NOC[C@@H](C)[C@H](OCc1ccccc1)C(C)C)NS(=O)(=O)c1ccc(C)cc1
2. CCN1C(=O)[C@H]2[C@H]3[C@H](O)[C@H](O)CC(=NOC[C@@H](O)COCc4ccco4)[C@H]3CC[C@H]2C1=O
3. CC(CCN1CCCCc2nc(C)c(C)cc21)=NO[C@H](C)c1cn([C@@H]2COC[C@H]2O)nn1

Data returned:
0.787
-7.58
-0.526
